# measured-target: T1, human PD-L1-his taq protein (human, UniProt Q9NZQ7 19-239, limits assumed)
# T1 construct: also called recombinant PD-L1 protein; recombinant human PD-L1; not shown: his tag
# T1 sequence (Q9NZQ7 19-239 limits assumed): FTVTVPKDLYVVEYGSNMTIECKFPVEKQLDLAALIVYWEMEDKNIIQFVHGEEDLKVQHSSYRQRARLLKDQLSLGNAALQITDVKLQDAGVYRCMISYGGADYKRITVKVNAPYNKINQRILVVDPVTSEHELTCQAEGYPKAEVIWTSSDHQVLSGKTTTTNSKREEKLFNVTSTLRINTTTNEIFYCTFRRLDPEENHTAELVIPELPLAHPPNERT
# experiment: SPR Biacore T200, antibody captured, PD-L1-his injected
Listed here are binders together with their documented koff.
The response must be a number in s⁻¹ with no trailing unit.

Below: 2 binders and their reported koff.
Exercise: # return recorded koff for entry Hu1210-16 (antibody, V domains shown, Hu1210 VH.4a x Vk.1; human gamma 1 / kappa constant domains) VH: EVQLVESGGGLVQPGGSLRLSCAASGFTFSSYDMSWVRQAPGKGLEWVATISDGGGYIYYSDSVKGRFTISRDNAKNSLYLQMNSLRDEDTAVYYCAREFGKRYALDYWGQGTTVTVSS VL: DIQMTQSPSSLSASVGDRVTITCKASQDVTPAVAWYQQKPGKAPKLLIYSTSSRYTGVPSRFSGSGSGTDFTFTISSLQPEDIATYYCQQHYTTPLTFGQGTKLEIK
Solution: 6.7e-05

Exercise: # return recorded koff for entry Hu1210-8 (antibody, V domains shown, Hu1210 VH.1a x Vk.1a; human gamma 1 / kappa constant domains) VH: EVQLVESGGGLVKPGGSLRLSCAASGFTFSSYDMSWVRQAPGKGLEWVATISDGGGYIYYSDSVKGRFTISRDNAKNSLYLQMNSLRAEDTAVYYCAREFGKRYALDYWGQGTTVTVSS VL: DIQMTQSPSSLSASVGDRVTITCKASQDVTPAVAWYQQKPGKSPKLLIYSTSSRYTGVPSRFSGSGSGTDFTFTISSLQPEDIATYYCQQHYTTPLTFGQGTKLEIK
Solution: 7.17e-05

Turning now to a further record.
Exercise: # return recorded koff for entry Hu1210-31 (antibody, V domains shown, Hu1210 VH.5b x Vk.2; human gamma 1 / kappa constant domains) VH: EVQLVESGGGLVQPGGSLRLSCAASGFTFSSYDMSWVRQAPGKGLEWVATISDGGGYIYYSDSVKGRFTISRDNAKNSLYLQMNSLRAEDTAVYICAREFGKRYALDYWGQGTTVTVSS VL: DIQMTQSPSSLSASVGDRVTITCKASQDVTPAVAWYQQKPGKAPKLLIYSTSSRYTGVPSRFSGSGSGTDFTLTISSLQPEDFATYYCQQHYTTPLTFGQGTKLEIKR
Solution: 0.000117
